target: mouse ATB^0,+ (Mus musculus, UniProt Q9JMA9); details: L-amino acid 1 mM; NaCl pH 7.5
reported_metric: Current in X. laevis oocytes (nA), L-isomer
Give bare numbers, in nA.

# annotated cases, reported Current in X. laevis oocytes (nA), L-isomer shown
| molecular_string | assay_target | measured_value |
| --- | --- | --- |
| CC(C)C[C@H](N)C(=O)O | mouse ATB^0,+ (Mus musculus, UniProt Q9JMA9) | 187 |
| NC(=O)C[C@H](N)C(=O)O | mouse ATB^0,+ (Mus musculus, UniProt Q9JMA9) | 394 |
| CC(C)[C@H](N)C(=O)O | mouse ATB^0,+ (Mus musculus, UniProt Q9JMA9) | 310 |

Please give Current in X. laevis oocytes (nA), L-isomer, item by item, for the list that follows.
1. N[C@@H](Cc1ccccc1)C(=O)O
2. CSCC[C@H](N)C(=O)O
3. N[C@@H](Cc1c[nH]c2ccccc12)C(=O)O

**Result**
[275, 278, 112]

* * *

molecular target: mouse ATB^0,+ (Mus musculus, UniProt Q9JMA9); details: D-amino acid 1 mM; NaCl pH 7.5
Outcome: T for Current in X. laevis oocytes (nA), D-isomer of at least 40 nA; F for anything lower.

| molecule | class_label |
| --- | --- |
| N[C@H](Cc1ccccc1)C(=O)O [D-Phenylalanine, D-phenylalanine] | F |
| NC(=O)CC[C@@H](N)C(=O)O [D-Glutamine, D-glutamine] | F |
| N=C(N)NCCC[C@H](N)C(=O)O [D-Arginine, Arginine] | F |
| CSCC[C@@H](N)C(=O)O [D-Methionine, D-methionine] | T |

**Query** Record NC(=O)C[C@H](N)C(=O)O [D-Asparagine, Asparagine] ; criterion: Current in X. laevis oocytes (nA), D-isomer no lower than 40 nA. Met?
**Result** F

**Query** Is Current in X. laevis oocytes (nA), D-isomer for CC(C)C[C@@H](N)C(=O)O [D-Leucine, D-leucine] at or above 40 nA?
**Result** T

**Query** Does the molecule CC(C)[C@H](N)C(=O)O [D-Valine, Valine] have recorded Current in X. laevis oocytes (nA), D-isomer that is 40 nA or more?
**Result** F

**Query** Quick check, Current in X. laevis oocytes (nA), D-isomer >= 40 nA? C[C@@H](N)C(=O)O [D-Alanine, D-alanine]
**Result** T

**Query** Does CC[C@H](C)[C@H](N)C(=O)O [D-Isoleucine, Isoleucine] have a reported Current in X. laevis oocytes (nA), D-isomer of at least 40 nA?
**Result** F

* * *

Target: mouse ATB^0,+ (Mus musculus)
Sequence (Q9JMA9 1-638): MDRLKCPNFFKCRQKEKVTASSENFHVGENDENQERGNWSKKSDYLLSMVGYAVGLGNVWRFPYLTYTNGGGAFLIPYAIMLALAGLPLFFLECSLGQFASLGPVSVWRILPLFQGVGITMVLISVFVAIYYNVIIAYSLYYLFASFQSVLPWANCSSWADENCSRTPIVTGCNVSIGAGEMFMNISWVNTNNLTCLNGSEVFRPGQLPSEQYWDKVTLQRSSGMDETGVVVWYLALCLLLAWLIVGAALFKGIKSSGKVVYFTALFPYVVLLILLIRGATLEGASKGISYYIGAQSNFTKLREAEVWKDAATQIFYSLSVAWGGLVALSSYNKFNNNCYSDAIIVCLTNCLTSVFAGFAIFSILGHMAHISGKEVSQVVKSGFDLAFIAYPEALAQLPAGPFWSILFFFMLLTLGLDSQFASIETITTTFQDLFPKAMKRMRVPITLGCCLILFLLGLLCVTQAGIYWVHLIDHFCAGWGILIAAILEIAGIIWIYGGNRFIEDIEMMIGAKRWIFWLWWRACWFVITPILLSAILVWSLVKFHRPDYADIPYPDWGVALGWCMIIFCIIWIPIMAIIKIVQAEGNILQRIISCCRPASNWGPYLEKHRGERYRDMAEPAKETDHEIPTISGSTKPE
reported_metric: activity (%)
Numbers only, in %.

Recorded results for 3 compounds are shown here.
| compound | assay_target | units | activity |
| --- | --- | --- | --- |
| N=C(N)NOCC[C@H](N)C(=O)O [L-Canavanine] | mouse ATB^0,+ (Mus musculus) | % | 24 |
| N=C(N)NCCC[C@H](N)C(=O)O [Arginine] | mouse ATB^0,+ (Mus musculus) | % | 30 |
| N=C(NCCC[C@H](N)C(=O)O)N[N+](=O)[O-] [L-NNA, N^ω-nitro-L-arginine] | mouse ATB^0,+ (Mus musculus) | % | 21 |

Please find the next compound below.
activity of CNC(=N)NCCC[C@H](N)C(=O)O [L-NMMA] , assay on mouse ATB^0,+ (Mus musculus), is 36
